target: PI3Kγ (Homo sapiens (Human), UniProt P48736)
Sequence (P48736 whole entry, canonical isoform): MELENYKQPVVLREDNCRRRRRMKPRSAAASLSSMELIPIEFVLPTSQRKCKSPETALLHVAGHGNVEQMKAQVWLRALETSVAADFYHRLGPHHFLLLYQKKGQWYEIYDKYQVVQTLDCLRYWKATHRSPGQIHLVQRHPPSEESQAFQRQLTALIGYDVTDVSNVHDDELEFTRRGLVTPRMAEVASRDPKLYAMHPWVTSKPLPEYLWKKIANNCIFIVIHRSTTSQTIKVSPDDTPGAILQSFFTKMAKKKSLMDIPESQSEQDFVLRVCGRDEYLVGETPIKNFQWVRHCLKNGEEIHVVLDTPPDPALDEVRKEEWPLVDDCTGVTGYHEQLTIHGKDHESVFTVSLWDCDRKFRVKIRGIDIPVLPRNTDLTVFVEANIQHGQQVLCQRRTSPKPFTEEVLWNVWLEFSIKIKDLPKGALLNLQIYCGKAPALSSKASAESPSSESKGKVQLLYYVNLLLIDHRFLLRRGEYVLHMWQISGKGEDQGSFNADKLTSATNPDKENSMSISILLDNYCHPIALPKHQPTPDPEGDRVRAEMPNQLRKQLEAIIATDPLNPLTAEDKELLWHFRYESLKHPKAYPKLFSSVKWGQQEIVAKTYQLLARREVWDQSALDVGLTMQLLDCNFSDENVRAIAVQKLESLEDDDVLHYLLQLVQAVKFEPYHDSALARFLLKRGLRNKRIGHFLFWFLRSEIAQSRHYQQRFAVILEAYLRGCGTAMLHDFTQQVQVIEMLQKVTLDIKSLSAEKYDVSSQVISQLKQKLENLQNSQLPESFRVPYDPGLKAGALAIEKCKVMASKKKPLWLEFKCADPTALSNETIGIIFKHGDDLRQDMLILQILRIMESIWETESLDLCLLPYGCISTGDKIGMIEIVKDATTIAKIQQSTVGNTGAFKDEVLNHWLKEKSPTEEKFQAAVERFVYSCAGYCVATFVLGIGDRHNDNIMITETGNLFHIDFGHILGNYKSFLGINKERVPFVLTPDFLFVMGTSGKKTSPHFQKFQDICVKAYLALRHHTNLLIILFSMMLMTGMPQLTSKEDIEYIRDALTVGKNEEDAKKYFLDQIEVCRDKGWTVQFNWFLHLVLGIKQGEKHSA
Sequence (Q8WYR1 whole entry partner, canonical isoform): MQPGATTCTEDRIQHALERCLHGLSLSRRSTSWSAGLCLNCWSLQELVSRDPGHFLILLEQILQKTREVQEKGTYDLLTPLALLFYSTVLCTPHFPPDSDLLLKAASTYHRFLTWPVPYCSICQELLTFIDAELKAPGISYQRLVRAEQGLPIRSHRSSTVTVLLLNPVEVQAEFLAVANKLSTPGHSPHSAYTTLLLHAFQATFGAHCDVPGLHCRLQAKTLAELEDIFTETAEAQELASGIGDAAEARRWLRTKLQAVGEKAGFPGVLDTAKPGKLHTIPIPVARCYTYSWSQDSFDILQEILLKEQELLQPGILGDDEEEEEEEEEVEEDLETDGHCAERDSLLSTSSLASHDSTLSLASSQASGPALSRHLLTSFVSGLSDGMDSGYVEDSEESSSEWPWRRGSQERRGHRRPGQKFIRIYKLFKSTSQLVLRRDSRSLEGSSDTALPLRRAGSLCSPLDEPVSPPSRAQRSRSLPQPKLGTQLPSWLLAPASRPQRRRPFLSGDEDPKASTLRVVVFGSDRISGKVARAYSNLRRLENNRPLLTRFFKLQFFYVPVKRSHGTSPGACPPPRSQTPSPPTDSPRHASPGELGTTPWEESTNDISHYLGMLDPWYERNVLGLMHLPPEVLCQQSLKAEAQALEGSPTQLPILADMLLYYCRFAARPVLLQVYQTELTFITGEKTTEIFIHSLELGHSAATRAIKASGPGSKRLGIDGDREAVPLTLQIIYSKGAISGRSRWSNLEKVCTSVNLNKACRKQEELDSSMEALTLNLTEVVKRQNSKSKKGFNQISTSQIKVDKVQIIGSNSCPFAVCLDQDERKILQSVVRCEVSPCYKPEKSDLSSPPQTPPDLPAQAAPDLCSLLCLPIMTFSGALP
test-details: TR-FRET enzymatic assay of PI3K isoforms (PI3Kγ)
Assay type: biochemical
condition-set: TR-FRET, 2×Km ATP, 2 μM PIP2, PI3Kγ at 2 nM, incubated for 30 minutes at 25° C.; read-out: γ IC50
experimental-endpoint: pIC50
Value format note: pIC50 is -log10 of concentration (mol/L); just state the number.

Query: State, in one line, measured pIC50 of C[C@H](Oc1ncnc2scnc12)c1nc2cccc(Cl)c2c(=O)n1-c1cccc(NC(=O)NCC(F)F)c1
Reply: 5.74

Query: Please give measured pIC50 of the following entry: C[C@H](Nc1ncnc(N)c1C#N)c1nc2cccc(Cl)c2c(=O)n1-c1cccc(NC(=O)Nc2ccc(Cl)c(C(F)(F)F)c2)c1
Reply: 5.80

Query: Retrieve pIC50 measured for C[C@H](Nc1ncnc(N)c1C#N)c1nc2cccc(Cl)c2c(=O)n1-c1cccc(NC(=O)Nc2ccccc2S(C)(=O)=O)c1 and print it.
Reply: 5.19

Query: Input C[C@H](Nc1ncnc(N)c1C#N)c1nc2cccc(F)c2c(=O)n1-c1cccc(NC(=O)Nc2ccccc2Cl)c1 , output reported pIC50.
Reply: 5.07

Query: Please give the documented pIC50 of N#Cc1c(N)nc(N)nc1N[C@H](c1nc2cccc(Cl)c2c(=O)n1-c1cncc(C(N)=O)c1)C1CC1
Reply: 6.38

Query: Input CCNC(=O)Nc1cccc(-n2c([C@H](C)Nc3ncnc4scnc34)nc3cccc(Cl)c3c2=O)c1 , output reported pIC50.
Reply: 5.89

Query: Using the record for CCNC(=O)Nc1cccc(-n2c([C@@H]3CCCN3c3ncnc(N)c3C#N)nc3cccc(Cl)c3c2=O)c1 , state its measured pIC50.
Reply: 5.48
